- Test system: HCT-15
- assay.name: Cytotoxicity against human HCT15 cells
- Assay type: functional
- measurement.conditions: read-out: ED50 (the source's name)
Parameter: EC50. Scope: all listed entries.
test.readout: EC50 (µg/mL)

>>> val("CC(C)[C@@H](CCO)CC[C@@H](C)[C@H]1[C@@H](O)[C@@H](O)[C@@H]2[C@]1(C)CC[C@@H]1[C@@]3(C)CC[C@H](O)[C@H](O)[C@@H]3[C@@H](O)C[C@]12O [CERTONARDOSTEROL P1]")
4.39
>>> val("C[C@H](/C=C/[C@@H](C)[C@H]1C[C@@H](O)[C@@H]2[C@]1(C)CC[C@@H]1[C@@]3(C)CC[C@H](O)C[C@@H]3[C@@H](O)C[C@]12O)[C@H](C)CO")
0.25
